test target: NDM-1 (Klebsiella pneumoniae)
Sequence (C7C422 29-270, looked up, species assumed): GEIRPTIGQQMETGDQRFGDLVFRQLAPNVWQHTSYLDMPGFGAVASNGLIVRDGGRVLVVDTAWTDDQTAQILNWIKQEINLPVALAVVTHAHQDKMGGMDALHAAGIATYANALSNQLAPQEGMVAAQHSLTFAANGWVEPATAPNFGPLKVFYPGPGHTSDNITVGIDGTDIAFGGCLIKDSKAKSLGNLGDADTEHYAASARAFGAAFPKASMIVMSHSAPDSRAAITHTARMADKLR
run description: biochemical
assay conditions: cleavage of imipenem (100 uM) by NDM-1; read-out: Ki, Imipenem
parameter: Ki

As a guide, the following entries are already answered.
molecule	Ki
COc1c(F)cc2c(c1C(=O)O)OB(O)[C@@H](Sc1nnc(N)s1)C2 [Compound 114]	10 to 100 nM
CSc1ccc2c(c1C(=O)O)OB(O)[C@@H](Sc1nncn1N)C2 [Compound 25]	< 10 nM
COc1ccc2c(c1C(=O)O)OB(O)[C@@H](Sc1nncn1CCCCN)C2 [Compound 73]	10 to 100 nM
O=C(O)c1cccc2c1OB(O)[C@@H](OC1CNC1)C2 [Compound 18]	10 to 100 nM

// input: 7 molecules below; output: Ki for each
1. O=C(O)c1cccc2c1OB(O)[C@@H](Sc1nccs1)C2 [Compound 11]
2. COc1ccc2c(c1C(=O)O)OB(O)[C@@H](Sc1nncs1)C2 [Compound 62]
3. COc1ccc2c(c1C(=O)O)OB(O)[C@@H](SC1CN(C3=NCCS3)C1)C2 [Compound 65]
4. COc1ccc2c(c1C(=O)O)OB(O)[C@@H](Sc1ncns1)C2 [Compound 75]
5. COc1ccc2c(c1C(=O)O)OB(O)[C@@H](Sc1nnc(NCCNC3CNC3)s1)C2 [Compound 105]
6. CO[C@H]1Cc2cccc(C(=O)O)c2OB1O [Compound 17]
7. CSCCOc1ccc2c(c1C(=O)O)OB(O)[C@@H](Sc1nncs1)C2 [Compound 95]

1. > 100 nM
2. > 100 nM
3. > 100 nM
4. > 100 nM
5. < 10 nM
6. 10 to 100 nM
7. 10 to 100 nM
